Assign AUC(0-t) to each entry below.
# protocol-description: AUC (0 to t) in Sprague-Dawley rat at 10 mg/kg, iv measured after 2 to 26 hrs
# Format: ADME, organism-based
# cond: in vivo
// units = ng·h/mL; emit number, no label

Using the record for COc1cc(OC)c2c(=O)cc(-c3cc(C)c(OC[C@H](O)CN4CCN(C)CC4)c(C)c3)oc2c1 , report its AUC(0-t). 7030

Find the recorded AUC(0-t) belonging to COc1cc(OC)c2c(=O)cc(-c3cc(C)c(OC[C@H](O)CN4CCCCC4)c(C)c3)oc2c1 and report it. 6760

====

# protocol-description: AUC (0 to t) in Sprague-Dawley rat at 20 mg/kg, po measured after 2 to 26 hrs
# Assay type: ADME, organism-based
# cond: in vivo
Give AUC(0-t) for every item shown.
Field: numeric (ng·h/mL). Do not append units.

Which value of AUC(0-t) has been reported for COc1cc(OC)c2c(=O)cc(-c3cc(C)c(OC[C@H](O)CN4CCCCC4)c(C)c3)oc2c1 in the records? 5170

Return reported AUC(0-t); argument: COc1cc(OC)c2c(=O)cc(-c3cc(C)c(OC[C@H](O)CN4CCN(C)CC4)c(C)c3)oc2c1 4970

====

# measured-on: Bromodomain-containing protein 2 (Homo sapiens, UniProt P25440)
# Sequence (P25440 whole entry): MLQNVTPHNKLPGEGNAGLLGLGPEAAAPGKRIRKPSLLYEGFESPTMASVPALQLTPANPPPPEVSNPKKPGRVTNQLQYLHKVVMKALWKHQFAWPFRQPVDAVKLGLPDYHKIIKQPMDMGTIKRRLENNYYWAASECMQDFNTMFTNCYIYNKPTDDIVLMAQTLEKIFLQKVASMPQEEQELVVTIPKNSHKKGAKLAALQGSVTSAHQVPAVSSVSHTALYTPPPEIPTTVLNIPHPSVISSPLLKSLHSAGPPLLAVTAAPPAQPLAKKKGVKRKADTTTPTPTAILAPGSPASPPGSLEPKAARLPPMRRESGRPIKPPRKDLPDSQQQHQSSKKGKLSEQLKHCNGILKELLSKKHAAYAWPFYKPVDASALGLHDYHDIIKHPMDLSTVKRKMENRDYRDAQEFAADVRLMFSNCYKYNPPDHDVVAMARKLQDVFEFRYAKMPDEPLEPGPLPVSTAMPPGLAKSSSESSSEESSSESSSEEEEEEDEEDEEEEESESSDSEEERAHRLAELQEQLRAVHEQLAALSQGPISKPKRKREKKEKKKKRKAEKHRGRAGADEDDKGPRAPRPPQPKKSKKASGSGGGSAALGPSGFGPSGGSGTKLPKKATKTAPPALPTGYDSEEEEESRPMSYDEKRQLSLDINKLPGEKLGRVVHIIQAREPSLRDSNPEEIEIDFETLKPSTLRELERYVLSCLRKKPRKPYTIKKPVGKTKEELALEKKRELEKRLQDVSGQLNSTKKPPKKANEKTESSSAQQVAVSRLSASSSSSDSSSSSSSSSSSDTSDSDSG
# protocol-description: Binding affinity to recombinant BRD2 BD2 (unknown origin) incubated for 1 hr by TR-FRET assay
parameter: pIC50
Interpret pIC50 as the negative base-10 log of the concentration measured in mol/L.

GET /values?readout=pIC50&item= COc1cc(OC)c2c(=O)cc(-c3cc(C)c(OC[C@@H](O)CN4CCCCC4)c(C)c3)oc2c1 5.92

Requested field: pIC50. Item: COc1cc(OC)c2c(=O)cc(-c3cc(C)c(OC[C@H](O)CN4CCCCC4)c(C)c3)oc2c1 6.07

====

# measured-on: UniProt P08684
# Sequence (P08684 whole entry): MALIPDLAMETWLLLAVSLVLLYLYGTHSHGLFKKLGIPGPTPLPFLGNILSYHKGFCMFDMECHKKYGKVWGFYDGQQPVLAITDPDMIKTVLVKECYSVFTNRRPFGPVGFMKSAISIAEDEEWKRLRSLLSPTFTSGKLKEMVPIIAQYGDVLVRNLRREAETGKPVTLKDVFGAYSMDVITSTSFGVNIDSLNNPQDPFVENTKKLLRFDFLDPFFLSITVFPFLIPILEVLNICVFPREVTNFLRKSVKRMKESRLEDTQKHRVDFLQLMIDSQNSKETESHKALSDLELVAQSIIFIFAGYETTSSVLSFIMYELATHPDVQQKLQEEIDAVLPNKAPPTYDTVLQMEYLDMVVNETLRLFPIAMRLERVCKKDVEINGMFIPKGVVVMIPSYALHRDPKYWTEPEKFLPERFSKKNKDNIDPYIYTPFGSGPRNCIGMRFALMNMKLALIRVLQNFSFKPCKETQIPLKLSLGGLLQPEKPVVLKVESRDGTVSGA
# protocol-description: Inhibition of CYP3A4 (unknown origin) at 10 uM using midazolam substrate relative to control
# Type: ADME
# cond: probe midazolam
parameter: inhibition at 10 µM (%)
Respond numerically; units are % and should not be typed.

So what's the measured inhibition at 10 µM for this one? COc1cc(OC)c2c(=O)cc(-c3cc(C)c(OC[C@H](O)CN4CCN(C)CC4)c(C)c3)oc2c1 9.5

====

# measured-on: Bromodomain-containing protein 4 (Homo sapiens)
# protocol-description: Inhibition of BRD4 in poly(I:C)-stimulated human SAECs TLR3-inducible CIG5 gene expression pre-incubated for 24 hrs before poly(I:C) stimulation for 4 hrs by qRT-PCR analysis
parameter: pIC50
pIC50 is a log-scale quantity: -log10 of the concentration expressed in molar.

Which pIC50 is listed for COc1cc(OC)c2c(=O)cc(-c3cc(C)c(OC[C@H](O)CN4CCCCC4)c(C)c3)oc2c1 ? 6.28

# input compound: COc1cc(OC)c2c(=O)cc(-c3cc(C)c(OCCO)c(C)c3)oc2c1 ; wanted: its pIC50 5.59

I would be grateful if you could share the reported pIC50 for COc1cc(OC)c2c(=O)[nH]c(-c3cc(C)c(OC[C@@H](O)CN4CCN(C)CC4)c(C)c3)nc2c1 . 5.59

Which pIC50 reading was recorded for the compound COc1cc(OC)c2c(=O)cc(-c3cc(C)c(OC[C@@H](O)CN4CCCCC4)c(C)c3)oc2c1 ? 6.24

Item under review: COc1cc(OC)c2c(=O)cc(-c3cc(C)c(OC[C@H](O)CN4CCCC4)c(C)c3)oc2c1 . Reported pIC50? 5.83
